# System: M. abscessus subsp. abscessus ATCC 19977
# test.description: MIC against M. abscessus in Middlebrook 7H9 + ADC
# Type: cell-based
# condition.details: Mycobacteroides abscessus, ATCC19977; ATCC 19977; 7H9 + ADC; read-out: MIC M. abscessus
parameter.measured: MIC

Answered examples (3):
CO[C@H]1/C=C/O[C@@]2(C)Oc3c(C)c(O)c4c(c3C2=O)C2=NC3(CCN(CC(C)C)CC3)NC2=C(NC(=O)/C(C)=C\C=C\[C@H](C)[C@H](O)[C@@H](C)[C@@H](O)[C@@H](C)[C@H](OC(=O)CCCC(=O)OC2CCN(C)C2)[C@@H]1C)C4=O (stereo partly shown) [Compound 77] = 0.5 µg/mL
CO[C@H]1/C=C/O[C@@]2(C)Oc3c(C)c(O)c4c(c3C2=O)C2=NC3(CCN(CC(C)C)CC3)NC2=C(NC(=O)/C(C)=C\C=C\[C@H](C)[C@H](O)[C@@H](C)[C@@H](O)[C@@H](C)[C@H](OC(=O)CC(=O)N2CCC(C(=O)c3ccccc3)CC2)[C@@H]1C)C4=O [Compound 55] = 0.25 µg/mL
CO[C@H]1/C=C/O[C@@]2(C)Oc3c(C)c(O)c4c(c3C2=O)C2=NC3(CCN(CC(C)C)CC3)NC2=C(NC(=O)/C(C)=C\C=C\[C@H](C)[C@H](O)[C@@H](C)[C@@H](O)[C@@H](C)[C@H](OC(=O)CC(=O)N2CCN(C3Cc5ccccc5C3)CC2)[C@@H]1C)C4=O [Compound 95] = 0.125 µg/mL

Please look at the following molecule next.
Asked: Which MIC value is on record for CO[C@H]1/C=C/O[C@@]2(C)Oc3c(C)c(O)c4c(c3C2=O)C2=NC3(CCN(CC(C)C)CC3)NC2=C(NC(=O)/C(C)=C\C=C\[C@H](C)[C@H](O)[C@@H](C)[C@@H](O)[C@@H](C)[C@H](OC(=O)CC(=O)N2CCC([C@@H](O)c3nccn3C)CC2)[C@@H]1C)C4=O [Compound 53] ?
Given back: 1 µg/mL

----------
# Tested on: M. abscessus subsp. abscessus ATCC 19977
# test.description: MIC against M. abscessus in Middlebrook 7H9 + ADC
# Assay type: cell-based
# condition.details: Mycobacteroides abscessus, ATCC19977; ATCC 19977; 7H9 + ADC; read-out: MIC M. abscessus
Give measured log10(MIC) for each item. Keep answers brief.
Values reflect log10 of reported MIC (µg/mL).

Answered examples (5):
CO[C@H]1/C=C/O[C@@]2(C)Oc3c(C)c(O)c4c(c3C2=O)C2=NC3(CCN(CC(C)C)CC3)NC2=C(NC(=O)/C(C)=C\C=C\[C@H](C)[C@H](O)[C@@H](C)[C@@H](O)[C@@H](C)[C@H](OC(=O)CC(=O)Nc2ccc(CN3CCN(C)CC3)cc2)[C@@H]1C)C4=O = 0.00
CO[C@H]1/C=C/O[C@@]2(C)Oc3c(C)c(O)c4c(c3C2=O)C2=NC3(CCN(CC(C)C)CC3)NC2=C(NC(=O)/C(C)=C\C=C\[C@H](C)[C@H](O)[C@@H](C)[C@@H](O)[C@@H](C)[C@H](OC(=O)C(C)C(=O)N2CCC(n3c(=O)[nH]c5ccccc53)CC2)[C@@H]1C)C4=O (some centres unmarked) = -0.30
COc1cc(CC2CCN(C(=O)CC(=O)O[C@H]3[C@H](C)[C@H](O)[C@H](C)[C@@H](O)[C@@H](C)/C=C/C=C(/C)C(=O)NC4=C5NC6(CCN(CC(C)C)CC6)N=C5c5c(c(O)c(C)c6c5C(=O)[C@@](C)(O/C=C/[C@H](OC)[C@H]3C)O6)C4=O)CC2)cc(C(F)(F)F)c1 = 0.00
CO[C@H]1/C=C/O[C@@]2(C)Oc3c(C)c(O)c4c(c3C2=O)C2=NC3(CCN(CC(C)C)CC3)NC2=C(NC(=O)/C(C)=C\C=C\[C@H](C)[C@H](O)[C@@H](C)[C@@H](O)[C@@H](C)[C@H](OC(=O)CC(=O)NCCN(C)C)[C@@H]1C)C4=O = 0.00
CO[C@H]1/C=C/O[C@@]2(C)Oc3c(C)c(O)c4c(c3C2=O)C2=NC3(CCN(CC(C)C)CC3)NC2=C(NC(=O)/C(C)=C\C=C\[C@H](C)[C@H](O)[C@@H](C)[C@@H](O)[C@@H](C)[C@H](OC(=O)CC(=O)Nc2ccc(CN3CCCCC3)cc2)[C@@H]1C)C4=O = 0.00

Record log10(MIC) per entry; entries follow.
1. CO[C@H]1/C=C/O[C@@]2(C)Oc3c(C)c(O)c4c(c3C2=O)C2=NC3(CCN(CC(C)C)CC3)NC2=C(NC(=O)/C(C)=C\C=C\[C@H](C)[C@H](O)[C@@H](C)[C@@H](O)[C@@H](C)[C@H](OC(=O)CC(=O)N2CCN(Cc3ccncc3)CC2)[C@@H]1C)C4=O
2. CO[C@H]1/C=C/O[C@@]2(C)Oc3c(C)c(O)c4c(c3C2=O)C2=NC3(CCN(CC(C)C)CC3)NC2=C(NC(=O)/C(C)=C\C=C\[C@H](C)[C@H](O)[C@@H](C)[C@@H](O)[C@@H](C)[C@H](OC(=O)CC(=O)NCCN2CCOCC2)[C@@H]1C)C4=O
3. CO[C@H]1/C=C/O[C@@]2(C)Oc3c(C)c(O)c4c(c3C2=O)C2=NC3(CCN(CC(C)C)CC3)NC2=C(NC(=O)/C(C)=C\C=C\[C@H](C)[C@H](O)[C@@H](C)[C@@H](O)[C@@H](C)[C@H](OC(=O)CC(=O)N2CCCN(c3nccc(C(F)(F)F)n3)CC2)[C@@H]1C)C4=O
4. CO[C@H]1/C=C/O[C@@]2(C)Oc3c(C)c(O)c4c(c3C2=O)C2=NC3(CCN(CC(C)C)CC3)NC2=C(NC(=O)/C(C)=C\C=C\[C@H](C)[C@H](O)[C@@H](C)[C@@H](O)[C@@H](C)[C@H](OC(=O)C(C)C(=O)N2CCN(c3ccccc3S(N)(=O)=O)CC2)[C@@H]1C)C4=O (some centres unmarked)
5. CO[C@H]1/C=C/O[C@@]2(C)Oc3c(C)c(O)c4c(c3C2=O)C2=NC3(CCN(CC(C)C)CC3)NC2=C(NC(=O)/C(C)=C\C=C\[C@H](C)[C@H](O)[C@@H](C)[C@@H](O)[C@@H](C)[C@H](OC(=O)CC(=O)N2CCN(Cc3ccccc3)CC2)[C@@H]1C)C4=O
6. CO[C@H]1/C=C/O[C@@]2(C)Oc3c(C)c(O)c4c(c3C2=O)C2=NC3(CCN(CC(C)C)CC3)NC2=C(NC(=O)/C(C)=C\C=C\[C@H](C)[C@H](O)[C@@H](C)[C@@H](O)[C@@H](C)[C@H](OC(=O)CC(=O)N2CCC(N(C)C)CC2)[C@@H]1C)C4=O
7. CO[C@H]1/C=C/O[C@@]2(C)Oc3c(C)c(O)c4c(c3C2=O)C2=NC3(CCN(CC(C)C)CC3)NC2=C(NC(=O)/C(C)=C\C=C\[C@H](C)[C@H](O)[C@@H](C)[C@@H](O)[C@@H](C)[C@H](OC(=O)CC(=O)N2CCCN(c3ccncc3)CC2)[C@@H]1C)C4=O

Given back:
1: -0.60; 2: 0.00; 3: -0.90; 4: -0.30; 5: -0.90; 6: 0.00; 7: -0.60

Record log10(MIC) per entry; entries follow.
1. CO[C@H]1/C=C/O[C@@]2(C)Oc3c(C)c(O)c4c(c3C2=O)C2=NC3(CCN(CC(C)C)CC3)NC2=C(NC(=O)/C(C)=C\C=C\[C@H](C)[C@H](O)[C@@H](C)[C@@H](O)[C@@H](C)[C@H](OC(=O)C(C)C(=O)N2CCCCC2)[C@@H]1C)C4=O (some centres unmarked)
2. CO[C@H]1/C=C/O[C@@]2(C)Oc3c(C)c(O)c4c(c3C2=O)C2=NC3(CCN(CC(C)C)CC3)NC2=C(NC(=O)/C(C)=C\C=C\[C@H](C)[C@H](O)[C@@H](C)[C@@H](O)[C@@H](C)[C@H](OC(=O)CC(=O)OCC(C)C)[C@@H]1C)C4=O

Given back:
1. -0.30
2. 0.60
